- runDescription: Solubility in various solvents at 25° C.
- Assay type: physicochemical
- measurementContext: organic solvent or mixture, CH3CN, read-out: solubility in CH3CN
parameterMeasured: solubility (µg/mL)
Express the result in µg/mL but write the number alone.

Value lookup for solubility; key = CCC(C)(C)c1ccc(-[s+]2c3cc4ccccc4cc3c3sc4cc5ccccc5cc4c32)cc1.F[B-](F)(F)F (centres unmarked) [Compound 1Aa]
5000

###

- runDescription: Solubility in various solvents at 25° C.
- Type: physicochemical
- measurementContext: organic solvent or mixture, CHCl3, read-out: solubility in CHCl3
parameterMeasured: solubility (µg/mL)
Express the result in µg/mL but write the number alone.

Value lookup for solubility; key = CCC(C)(C)c1ccc(-[s+]2c3cc4ccccc4cc3c3sc4cc5ccccc5cc4c32)cc1.F[B-](F)(F)F (centres unmarked)
5000
